measurementNotes: Peroxidase activity, ABTS oxidation
Format: biochemical
conditionNotes: 10 μM compound, 200 μM hydrogen peroxide, 500 μM ABTS, pH 8.1, 740 nm
valueKind: PEROXIDASE Initial Rate

>>> valuereported("CC[NH+](CC)CCNS(=O)(=O)c1c(C)cc(C)c(C2=C3C=CC4=[N+]3[Mn-]35[n]6c2ccc6C(c2c(C)cc(C)c(S(=O)(=O)NCC[NH+](CC)CC)c2C)=C2C=CC(=[N+]23)C(c2c(C)cc(C)c(S(=O)(=O)NCC[NH+](CC)CC)c2C)=c2ccc([n]25)=C4c2c(C)cc(C)c(S(=O)(=O)NCC[NH+](CC)CC)c2C)c1C.[Cl-].[Cl-].[Cl-].[Cl-].[Cl-]")
"0.021 change in absorbance per min."

// PEROXIDASE Initial Rate value for "CC(=O)[O-].CC(=O)[O-].CC(=O)[O-].CC(=O)[O-].CC(=O)[O-].CC[N+](C)(CC)CCNS(=O)(=O)c1c(C)cc(C)c(-c2c3nc(c(-c4c(C)cc(C)c(S(=O)(=O)NCC[N+](C)(CC)CC)c4C)c4ccc([n-]4)c(-c4c(C)cc(C)c(S(=O)(=O)NCC[N+](C)(CC)CC)c4C)c4nc(c(-c5c(C)cc(C)c(S(=O)(=O)NCC[N+](C)(CC)CC)c5C)c5ccc2[n-]5)C=C4)C=C3)c1C.O.O.[Mn+3]" : 0.0025 change in absorbance per min.

According to the records, this compound "CC[NH+](CC)CCNS(=O)(=O)c1c(C)cc(C)c(C2=C3C=CC4=[N+]3[Fe-]35[n]6c2ccc6C(c2c(C)cc(C)c(S(=O)(=O)NCC[NH+](CC)CC)c2C)=C2C=CC(=[N+]23)C(c2c(C)cc(C)c(S(=O)(=O)NCC[NH+](CC)CC)c2C)=c2ccc([n]25)=C4c2c(C)cc(C)c(S(=O)(=O)NCC[NH+](CC)CC)c2C)c1C.[Cl-].[Cl-].[Cl-].[Cl-].[Cl-]" displays PEROXIDASE Initial Rate of 0.0443 change in absorbance per min.

Memo: C[n+]1ccc(-c2c3nc(c(-c4cc[n+](C)cc4)c4ccc([n-]4)c(-c4cc[n+](C)cc4)c4nc(c(-c5cc[n+](C)cc5)c5ccc2[n-]5)C=C4)C=C3)cc1.[Mn+3] [MnTMPyP, reference compound] , reported PEROXIDASE Initial Rate: 0.0672 change in absorbance per min.

###

measurementNotes: Peroxidase activity, ABTS oxidation
Type: biochemical
conditionNotes: 10 μM compound, 200 μM hydrogen peroxide, 500 μM ABTS, pH 8.1, 740 nm
valueKind: PEROXIDASE Initial Rate

Record "CC(=O)[O-].CC(=O)[O-].CC(=O)[O-].CC(=O)[O-].CC(=O)[O-].CC[N+](C)(CC)CCNS(=O)(=O)c1ccc(-c2c3nc(c(-c4ccc(S(=O)(=O)NCC[N+](C)(CC)CC)cc4)c4ccc([n-]4)c(-c4ccc(S(=O)(=O)NCC[N+](C)(CC)CC)cc4)c4nc(c(-c5ccc(S(=O)(=O)NCC[N+](C)(CC)CC)cc5)c5ccc2[n-]5)C=C4)C=C3)cc1.O.O.[Mn+3]" , field PEROXIDASE Initial Rate: 0.0011 change in absorbance per min.

###

measurementNotes: Peroxidase activity, ABTS oxidation
Type: biochemical
conditionNotes: 10 μM compound, 200 μM hydrogen peroxide, 500 μM ABTS, pH 8.1, 740 nm
Here the recorded PEROXIDASE Initial Rate is given for each entry.

Sample records with PEROXIDASE Initial Rate:
>>> valuereported("CC[NH+](CC)CCNS(=O)(=O)c1ccc(C2=C3C=CC4=[N+]3[Mn-]35[n]6c2ccc6C(c2ccc(S(=O)(=O)NCC[NH+](CC)CC)cc2)=C2C=CC(=[N+]23)C(c2ccc(S(=O)(=O)NCC[NH+](CC)CC)cc2)=c2ccc([n]25)=C4c2ccc(S(=O)(=O)NCC[NH+](CC)CC)cc2)cc1.[Cl-].[Cl-].[Cl-].[Cl-].[Cl-]")
"0.0151 change in absorbance per min."
>>> valuereported("CC[NH+](CC)CCNS(=O)(=O)c1ccc(-c2c3nc(c(-c4ccc(S(=O)(=O)NCC[NH+](CC)CC)cc4)c4ccc([n-]4)c(-c4ccc(S(=O)(=O)NCC[NH+](CC)CC)cc4)c4nc(c(-c5ccc(S(=O)(=O)NCC[NH+](CC)CC)cc5)c5ccc2[n-]5)C=C4)C=C3)cc1.O.O.[Cl-].[Cl-].[Cl-].[Cl-].[Cl-].[Fe+3]")
"0.0363 change in absorbance per min."

# ---- query compound ----
Looking up O=C(O)c1ccc(-c2c3nc(c(-c4ccc(C(=O)O)cc4)c4ccc([n-]4)c(-c4ccc(C(=O)O)cc4)c4nc(c(-c5ccc(C(=O)O)cc5)c5ccc2[n-]5)C=C4)C=C3)cc1.[Mn+3] [MnTBAP, reference compound] , I see its PEROXIDASE Initial Rate listed as 0.0304 change in absorbance per min.

###

measurementNotes: Superoxide dismutase activity, xanthine-xanthine oxidase / cytochrome C
Format: biochemical
conditionNotes: reciprocal of IC50; xanthine 60 μM, xanthine oxidase 0.009 units/ml, cytochrome C 27.8 μM
Decision: Cyt C SOD 1/(IC50, μM) beneath 0.04 µM⁻¹ gives True; Cyt C SOD 1/(IC50, μM) meeting or exceeding 0.04 µM⁻¹ gives False.

// known answers, use as guide
>>> answerlabel("CC[NH+](CC)CCNS(=O)(=O)c1ccc(-c2c3nc(c(-c4ccc(S(=O)(=O)NCC[NH+](CC)CC)cc4)c4ccc([n-]4)c(-c4ccc(S(=O)(=O)NCC[NH+](CC)CC)cc4)c4nc(c(-c5ccc(S(=O)(=O)NCC[NH+](CC)CC)cc5)c5ccc2[n-]5)C=C4)C=C3)cc1.O.O.[Cl-].[Cl-].[Cl-].[Cl-].[Cl-].[Fe+3]")
"False"
>>> answerlabel("C[n+]1ccc(-c2c3nc(c(-c4cc[n+](C)cc4)c4ccc([n-]4)c(-c4cc[n+](C)cc4)c4nc(c(-c5cc[n+](C)cc5)c5ccc2[n-]5)C=C4)C=C3)cc1.[Mn+3] [MnTMPyP, reference compound]")
"False"
>>> answerlabel("CC[NH+](CC)CCNS(=O)(=O)c1ccc(C2=C3C=CC4=[N+]3[Mn-]35[n]6c2ccc6C(c2ccc(S(=O)(=O)NCC[NH+](CC)CC)cc2)=C2C=CC(=[N+]23)C(c2ccc(S(=O)(=O)NCC[NH+](CC)CC)cc2)=c2ccc([n]25)=C4c2ccc(S(=O)(=O)NCC[NH+](CC)CC)cc2)cc1.[Cl-].[Cl-].[Cl-].[Cl-].[Cl-]")
"True"

Now consider a different molecule.
Ask: Does O=C(O)c1ccc(-c2c3nc(c(-c4ccc(C(=O)O)cc4)c4ccc([n-]4)c(-c4ccc(C(=O)O)cc4)c4nc(c(-c5ccc(C(=O)O)cc5)c5ccc2[n-]5)C=C4)C=C3)cc1.[Mn+3] [MnTBAP, reference compound] have Cyt C SOD 1/(IC50, μM) strictly under 0.04 µM⁻¹?
Result: True

###

measurementNotes: Superoxide dismutase activity, xanthine-xanthine oxidase / cytochrome C
Assay type: biochemical
conditionNotes: reciprocal of IC50; xanthine 60 μM, xanthine oxidase 0.009 units/ml, cytochrome C 27.8 μM
valueKind: Cyt C SOD 1/(IC50, μM)
Answer by giving the amount and then stating its unit.

>>> valuereported("CC(=O)[O-].CC(=O)[O-].CC(=O)[O-].CC(=O)[O-].CC(=O)[O-].CC[N+](C)(CC)CCNS(=O)(=O)c1c(C)cc(C)c(-c2c3nc(c(-c4c(C)cc(C)c(S(=O)(=O)NCC[N+](C)(CC)CC)c4C)c4ccc([n-]4)c(-c4c(C)cc(C)c(S(=O)(=O)NCC[N+](C)(CC)CC)c4C)c4nc(c(-c5c(C)cc(C)c(S(=O)(=O)NCC[N+](C)(CC)CC)c5C)c5ccc2[n-]5)C=C4)C=C3)c1C.O.O.[Mn+3] [Structural Formula VII]")
"0.013 µM⁻¹"

CC[NH+](CC)CCNS(=O)(=O)c1c(C)cc(C)c(C2=C3C=CC4=[N+]3[Fe-]35[n]6c2ccc6C(c2c(C)cc(C)c(S(=O)(=O)NCC[NH+](CC)CC)c2C)=C2C=CC(=[N+]23)C(c2c(C)cc(C)c(S(=O)(=O)NCC[NH+](CC)CC)c2C)=c2ccc([n]25)=C4c2c(C)cc(C)c(S(=O)(=O)NCC[NH+](CC)CC)c2C)c1C.[Cl-].[Cl-].[Cl-].[Cl-].[Cl-] [Structural Formula V] yielded Cyt C SOD 1/(IC50, μM) of 0.067 µM⁻¹

Documented Cyt C SOD 1/(IC50, μM) of CC[NH+](CC)CCNS(=O)(=O)c1c(C)cc(C)c(C2=C3C=CC4=[N+]3[Mn-]35[n]6c2ccc6C(c2c(C)cc(C)c(S(=O)(=O)NCC[NH+](CC)CC)c2C)=C2C=CC(=[N+]23)C(c2c(C)cc(C)c(S(=O)(=O)NCC[NH+](CC)CC)c2C)=c2ccc([n]25)=C4c2c(C)cc(C)c(S(=O)(=O)NCC[NH+](CC)CC)c2C)c1C.[Cl-].[Cl-].[Cl-].[Cl-].[Cl-] [Structural Formula IV] : 0.043 µM⁻¹
